- System Tested: H^+,K^+ -ATPase (Oryctolagus cuniculus)
- Construct: The rabbit gastric glands were homogenized and the microsomal fractions were prepared; from tissue; host or cells: rabbit gastric glands, light membrane fraction between 30% and 40% sucrose
- Sequence (P27112 whole entry): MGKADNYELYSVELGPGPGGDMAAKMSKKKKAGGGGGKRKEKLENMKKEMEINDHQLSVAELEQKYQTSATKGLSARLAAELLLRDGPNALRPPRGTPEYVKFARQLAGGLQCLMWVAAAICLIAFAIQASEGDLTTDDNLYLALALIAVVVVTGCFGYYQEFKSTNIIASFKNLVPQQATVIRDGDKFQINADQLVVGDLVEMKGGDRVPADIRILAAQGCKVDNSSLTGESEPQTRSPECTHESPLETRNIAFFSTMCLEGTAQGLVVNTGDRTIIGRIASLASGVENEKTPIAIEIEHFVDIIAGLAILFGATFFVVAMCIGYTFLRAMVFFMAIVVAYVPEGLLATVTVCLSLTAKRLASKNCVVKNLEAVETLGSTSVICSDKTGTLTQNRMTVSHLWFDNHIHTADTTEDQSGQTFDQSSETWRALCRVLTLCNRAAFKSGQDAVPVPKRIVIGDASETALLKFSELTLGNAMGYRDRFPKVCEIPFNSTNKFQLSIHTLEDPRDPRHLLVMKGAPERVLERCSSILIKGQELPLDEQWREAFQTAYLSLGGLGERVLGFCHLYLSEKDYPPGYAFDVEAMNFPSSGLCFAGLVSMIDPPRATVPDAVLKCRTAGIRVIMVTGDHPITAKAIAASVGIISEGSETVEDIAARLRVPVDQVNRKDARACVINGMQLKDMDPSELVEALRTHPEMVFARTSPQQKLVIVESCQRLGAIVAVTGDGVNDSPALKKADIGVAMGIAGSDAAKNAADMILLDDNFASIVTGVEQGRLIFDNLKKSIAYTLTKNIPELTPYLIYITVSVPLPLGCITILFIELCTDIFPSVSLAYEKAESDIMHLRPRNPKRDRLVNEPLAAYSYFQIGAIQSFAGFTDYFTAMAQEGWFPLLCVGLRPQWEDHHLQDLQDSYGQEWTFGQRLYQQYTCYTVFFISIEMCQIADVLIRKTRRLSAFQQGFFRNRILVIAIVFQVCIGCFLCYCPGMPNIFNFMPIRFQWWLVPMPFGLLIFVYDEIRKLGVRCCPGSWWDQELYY
- Sequence (P18597 whole entry partner): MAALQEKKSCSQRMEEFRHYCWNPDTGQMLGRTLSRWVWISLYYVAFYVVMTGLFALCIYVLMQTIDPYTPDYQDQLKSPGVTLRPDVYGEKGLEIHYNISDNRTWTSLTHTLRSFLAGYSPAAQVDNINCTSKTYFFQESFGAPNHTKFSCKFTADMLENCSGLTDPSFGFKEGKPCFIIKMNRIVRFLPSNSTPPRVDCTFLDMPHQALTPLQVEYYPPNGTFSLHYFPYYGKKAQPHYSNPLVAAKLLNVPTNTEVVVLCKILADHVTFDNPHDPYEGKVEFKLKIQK
- Protocol Text: Inhibitory effects on the enzymatic activity of H^+,K^+ -ATPase
- Format: biochemical, rabbit
- Condition Description: pre-incubated 30 minutes at 37° C.; pH 7.3; with or without 50 mM KCl; read-out: IC50 value required for 50% inhibition of the enzymatic activity
Reported Metric: IC50 (µM)
Answers are plain numbers, in µM.

{"Mol Smiles": "Cc1cnc(CSc2cc3ccccc3[nH]2)cc1N1CCCCC1", "Result Unit": "µM", "Reported": 50}

Continue with the compound presented below.
Name the recorded IC50 for "CN(C)c1ccnc(CSc2cc3ccccc3[nH]2)c1" .
700
